- Test system: LOX IMVI melanoma
- PROCEDURE_SUMMARY: NCI tumour cell line growth inhibition, 48 h; in the data active means GI50 below about 0.43 µM; inactive means the rest
Write down the outcome that applies. Available outcomes: t for active, f for inactive

Look over these answered cases.
{"COMPOUND": "COC(=O)C[CH](C(=O)OC)[Ge]([CH3])([CH3])[S]c1ccccc1 (configuration not stated)", "TEST_SYSTEM": "LOX IMVI melanoma", "CATEGORY_LABEL": "f"}
{"COMPOUND": "O=C1NC(=O)/C(=C/C=C/c2ccccc2)S1", "TEST_SYSTEM": "LOX IMVI melanoma", "CATEGORY_LABEL": "f"}
{"COMPOUND": "CCCCCCCCCCCCn1c(C)nc2ccccc21", "TEST_SYSTEM": "LOX IMVI melanoma", "CATEGORY_LABEL": "f"}
{"COMPOUND": "COc1ccc(-c2ccc3c(NC(=O)C4CC4)n[nH]c3n2)cc1", "TEST_SYSTEM": "LOX IMVI melanoma", "CATEGORY_LABEL": "f"}
{"COMPOUND": "COc1ccc(C(=O)c2cc(OC)c(OC)c(OC)c2)cc1OC(C)=O", "TEST_SYSTEM": "LOX IMVI melanoma", "CATEGORY_LABEL": "t"}
{"COMPOUND": "CCSc1oc(-c2ccccc2)nc1[P+](c1ccccc1)(c1ccccc1)c1ccccc1", "TEST_SYSTEM": "LOX IMVI melanoma", "CATEGORY_LABEL": "t"}

## Input Tell me the recorded outcome of this test for "O=C(c1ccccc1Nc1ccnc(C(F)(F)F)c1)N1CCN(c2cccc(Cl)c2)CC1" .
## Output f

====

- Test system: CAKI-1 renal
- PROCEDURE_SUMMARY: NCI tumour cell line growth inhibition, 48 h
ENDPOINT_NAME: TGI (µM)
Report the value in µM with no unit label.

## Input # lookup: TGI of "CCSc1oc(-c2ccccc2)nc1[P+](c1ccccc1)(c1ccccc1)c1ccccc1"
## Output 2.66

## Input # lookup: TGI of COC(=O)C[CH](C(=O)OC)[Ge]([CH3])([CH3])[S]c1ccccc1 (configuration not stated)
## Output 47.8

## Input # lookup: TGI of "Cc1cc(C)cc(-n2c3nc(=O)n(C)c(=O)c-3nc3ccccc32)c1"
## Output 87.3

## Input # lookup: TGI of "CCCCCc1cc2c(cc1O)CC[C@@H]1[C@@H]2CC[C@]2(C)[C@@H](O)CC[C@@H]12"
## Output 40.4

## Input # lookup: TGI of "Cn1nc(C(F)(F)F)c(-c2ccc(Cl)c(C(F)(F)F)c2)c1-c1ccc(OCc2ccc(Cl)cc2)cc1O"
## Output 5.62

## Input # lookup: TGI of COc1cc(C2C3=C(CCC3=O)Oc3cc4c(cc32)OCO4)cc(OC)c1OC (configuration not stated)
## Output 30.3

## Input # lookup: TGI of "CC1(C)CCC[C@]23C(=O)O[C@](O)(C(=O)C4=C[C@@](C)(/C=C/CCCc5ccc6ccc7cccc8ccc5c6c78)CC[C@@]42O)[C@@H]13"
## Output 0.364

## Input # lookup: TGI of COc1cc2cc(C(=O)N3CC(CCl)c4c3cc(N)c3ccccc43)[nH]c2cc1OCCN(C)C (configuration not stated)
## Output 0.094

## Input # lookup: TGI of "O=C(O)/C=C(/CC(=O)O)C(=O)O"
## Output 54.1
